pKi values, listed per item
Assay: Displacement of [3H]methyllycaconitine from rat alpha7 nAchR in rat hippocampal membrane
Assay type: cell membranes, Hippocampus
Give only the number. pKi is defined as minus log10 of concentration in molar units.

Solved cases below.
For this compound ( COc1ccccc1C1=NCC2(CN3CCC2CC3)NC(=O)C1 (stereo unspecified) ), measured pKi is 6.96

The reported value for COc1ccc(/C=C2\CCCN=C2c2cccnc2)c(OC)c1 in terms of pKi is 5.89

Just so you know, measured pKi for Nc1c(C2=NC3(CN2)CN2CCC3CC2)oc2ccccc12 (stereo unspecified) came out at 6.92

Lab book: pKi of O=C1CC(c2ccco2)=NCC2(CN3CCC2CC3)N1 (stereo unspecified) noted as 6.82

Further cases:
Entry under test: COc1ccc(C2=NCC3(CN4CCC3CC4)NC(=O)C2)cc1 (stereo unspecified) . Its pKi was 7.38

Looking up O=C1CC(c2cccs2)=NCC2(CN3CCC2CC3)N1 (stereo unspecified) , I found its pKi recorded as 7.24

// recorded pKi for OC1=CC(c2ccccc2)=NCC2(CN3CCC2CC3)N1 (stereo unspecified) : 6.85

// sample COc1cccc(C2=NCC3(CN4CCC3CC4)NC(=O)C2)c1 (stereo unspecified) , its pKi was 7.06

So, O=C1CC(c2ccc(Br)s2)=NCC2(CN3CCC2CC3)N1 (stereo unspecified) ? Its pKi was 7.11

Measured pKi of Oc1ccccc1C1=NC2(CN1)CN1CCC2CC1 (stereo unspecified) : 6.54

For record Oc1c(C2=NC3(CN2)CN2CCC3CC2)oc2ccccc12 (stereo unspecified) the listed pKi is 8.15
